test system: K-562; assay: Inhibition of cells growth by colorimetric assay (SRB); conditions: Homo sapiens, K562, 48 h, read-out: LC50 K562
Observed property: log10 CC50 (log10 of the value in µM)
Scale: decimal log of CC50, CC50 in µM.

Reference set, count: 6
Compound | Number
C=CCOc1c(C)c2c(c3c1CC1[C@H]4c5c(cc(C)c(OC)c5O)C[C@@H]([C@H](C#N)N1[C@H]3CO)N4C)OCO2 (stereo partly shown) | 0.68
C=CCN1[C@@H]2c3c(cc(C)c(OC)c3OC(=O)/C=C/c3ccccc3)C[C@H]1[C@H](C#N)N1C2[C@@H]2SCC(NC(=O)C(F)(F)F)C(=O)OC[C@H]1c1c3c(c(C)c(OC(C)=O)c12)OCO3 (stereo partly shown) | 1.06
CCCCCCCCCCCCCCCC(=O)NC1CS[C@@H]2c3c(OC(C)=O)c(C)c4c(c3[C@H](COC1=O)N1C2[C@@H]2N[C@@H](Cc3cc(C)c(OC)c(O)c32)[C@@H]1C#N)OCO4 (stereo partly shown) | 0.83
C=CCN1[C@@H]2c3c(cc(C)c(OC)c3O)C[C@H]1[C@H](C#N)N1C2[C@@H]2SC[C@H](NC(=O)c3cc4ccccc4oc3=O)C(=O)OC[C@H]1c1c3c(c(C)c(OC(C)=O)c12)OCO3 (stereo partly shown) | 0.43
C=CCOc1c(C)c2c(c3c1CC1[C@H]4c5c(cc(C)c(OC)c5O)C[C@@H]([C@H](C#N)N1[C@H]3CN)N4C)OCO2 (stereo partly shown) | 0.25
C=CCN1[C@@H]2c3c(cc(C)c(OC)c3O)C[C@H]1[C@H](C#N)N1C2[C@@H]2SCC(NC(=O)CCCCCCCCCCCCCCC)C(=O)OC[C@H]1c1c3c(c(C)c(OC(C)=O)c12)OCO3 (stereo partly shown) | 1.03

Proceed to the following item.
Input: Provide measured log10 CC50 value, entry: COc1c(C)cc2c(c1O)[C@H]1N[C@@H](C2)[C@H](C#N)N2C1[C@@H]1SCC(NC(=O)C(F)(F)F)C(=O)OC[C@H]2c2c3c(c(C)c(OC(C)=O)c21)OCO3 (stereo partly shown)
Output: -0.90
